Value source: paper PMC8523698

test: Monkey pharmacokinetic study; conditions: male, cynomolgus monkey, plasma, iv, […], Half life, Mean Data, monkey, PF-07304814 prodrug dosed […] intravenous, mean
readout: half-life (h)
Give bare numbers, in h.

Kindly note the recorded half-life for `COc1cccc2[nH]c(C(=O)N[C@@H](CC(C)C)C(=O)N[C@@H](C[C@@H]3CCNC3=O)C(=O)COP(=O)(O)O)cc12` , which is 2.6

----------
molecular target: CYP2C8 (Homo sapiens); assay: Reversible CYP inhibition in human liver microsomes; settings: human, microsomes, pH 7.4, Percent of Control Activity, CYP 2C8, 4.48 µM, 30-Minute Preincubation
Sequence (P10632 whole entry): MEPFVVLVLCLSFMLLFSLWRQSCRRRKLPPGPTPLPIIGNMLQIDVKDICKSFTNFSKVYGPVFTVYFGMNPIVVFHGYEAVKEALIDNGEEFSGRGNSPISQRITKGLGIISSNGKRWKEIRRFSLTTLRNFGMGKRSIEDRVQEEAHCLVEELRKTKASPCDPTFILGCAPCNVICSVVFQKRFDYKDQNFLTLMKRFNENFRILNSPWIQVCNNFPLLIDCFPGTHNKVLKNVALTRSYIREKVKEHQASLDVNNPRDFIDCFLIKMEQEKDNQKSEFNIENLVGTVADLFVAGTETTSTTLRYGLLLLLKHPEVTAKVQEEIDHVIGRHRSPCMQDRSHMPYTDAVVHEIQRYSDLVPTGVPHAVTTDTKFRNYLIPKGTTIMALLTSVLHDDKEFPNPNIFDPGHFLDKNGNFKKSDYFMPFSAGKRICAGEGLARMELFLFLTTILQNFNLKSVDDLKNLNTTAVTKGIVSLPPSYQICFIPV
readout: activity at 4.48 µM
Be sure to follow the number with its unit.

Kindly note the recorded activity at 4.48 µM for `COc1cccc2[nH]c(C(=O)N[C@@H](CC(C)C)C(=O)N[C@@H](C[C@@H]3CCNC3=O)C(=O)CO)cc12` , which is 85.8%
